Test system FXa (Homo sapiens, UniProt P00742), IC50 listed for each of the molecules.
assay-readout: IC50 (µM)

INSERT INTO measurements (molecule, number) VALUES
  ('O=C(/C=C/c1ccc(O)cc1)c1ccc(O)cc1O [Compound 4, isoliquiritigenin]', 74.4);

A: CC1(C)C=Cc2c(ccc3c2OC[C@@H](c2ccc(O)cc2O)C3)O1 [Compound 3, 3-R-glabridin]
B: O=C1C[C@@H](c2ccc(O[C@@H]3O[C@H](CO)[C@@H](O)[C@H](O)[C@H]3O)cc2)Oc2cc(O)ccc21 [Compound 5, liquiritin]
Hi, I'm comparing A with B and wondering which one has the bigger number for IC50. Any idea? Answer with the label corresponding to your selection.
A

P: COc1ccc(-c2coc3cc(O)ccc3c2=O)cc1 [Compound 2, 7-hydroxy-4′-methoxyisoflavone]
Q: O=c1cc(-c2ccc(O)cc2)oc2cc(O)ccc12 [Compound 1, 7,4′-dihydroxyflavone]
Compare P and Q and name the one whose reported IC50 is smaller. Indicate which entry you chose by stating its label.
P
(P: 17.7 µM, Q: 67.1 µM)
